Target: Human LBAT (Homo sapiens)
Construct: Geneticin-selected
Sequence (Q14973 1-349): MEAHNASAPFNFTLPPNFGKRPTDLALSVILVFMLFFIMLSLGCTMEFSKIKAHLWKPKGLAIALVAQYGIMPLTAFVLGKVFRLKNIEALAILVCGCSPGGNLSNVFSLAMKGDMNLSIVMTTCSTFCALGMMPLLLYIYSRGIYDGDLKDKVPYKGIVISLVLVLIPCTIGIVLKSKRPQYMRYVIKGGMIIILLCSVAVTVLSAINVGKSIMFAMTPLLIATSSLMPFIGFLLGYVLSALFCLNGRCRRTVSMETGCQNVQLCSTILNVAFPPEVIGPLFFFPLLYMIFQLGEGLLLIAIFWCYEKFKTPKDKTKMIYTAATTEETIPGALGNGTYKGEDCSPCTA
Test: LBAT (h/m) assay, human LBAT-overexpressing cells, 3H-taurocholic acid uptake
Settings: 0.3 μM 3H-taurocholic acid and 7.5 μM cold taurocholic acid, 20 minutes, read-out: hLBAT IC50
Description: LBAT (h/m) Assay Protocol 20,000 cells (Human or Mouse LBAT-overexpressing cells) were seeded in 96-wells plate (Corning CLS3809) in 100 μL MEM-alpha medium (Gibco 12571-063) supplemented with 10% FBS (Gibco 10438026) containing Geneticin (Gibco 10131-027) (1 mg/mL) and incubated at 37° C. in 5% CO2 for 24 hours. After incubation, media was decanted from the wells and cells were washed two times with 300 μL of basal MEM-alpha medium (FBS-free). […]
pIC50: −log10 of the molar value.
pIC50 of 6 or higher: label 1. Under 6: label 0.

# count of solved cases: 4
| COMPOUND | LABEL_VALUE |
| --- | --- |
| CCCCC1(CC)CN(c2ccccc2)c2cc(OC)c(OCCC(=O)O)cc2S(=O)(=O)C1 (single isomer, unassigned) [44, enantiomer 2] | label 0 |
| CCCCC1(C)CN(c2ccccc2)c2cc(SC)c(OC[C@H](O)C(=O)O)cc2S(=O)(=O)C1 (single isomer, unassigned) | label 0 |
| CCCCC1(C)CN(c2ccccc2)c2cc(SC)c(OCC(O)C(=O)O)cc2S(=O)(=O)C1 (single isomer, unassigned) [32, diastereomer 1] | label 0 |
| CCCCC1(CCCC)CN(c2ccccc2)c2cc(SC)c(OCC(O)C(=O)O)cc2S(=O)(=O)C1 (racemic) [Example 9] | label 1 |

Next:
I'd appreciate it if you could say whether CCCCC1(CC)CN(c2ccccc2)c2cc(SC)c(OCC(O)C(=O)O)cc2S(=O)(=O)C1 (stereo not drawn) [Example 39] has pIC50 at least equal to 6.
label 1

---

experiment: Bidirectional permeability assay (Caco-2 cells); type: in vitro ADME; details: human, Caco-2, absorptive direction (A2B), 10 μM in FaSSIF buffer
// returns not met unless Papp A→B at 120 min, 10 μM is strictly below 4 ×10⁻⁶ cm/s, in which case met

| COMPOUND | LABEL_VALUE |
| --- | --- |
| CCCCC1(CC)CN(c2ccccc2)c2cc(Br)c(OCCC(=O)O)cc2S(=O)(=O)C1 (single isomer, unassigned) [Example 2] | met |
| CCCCC1(CC)CN(c2ccccc2)c2cc(N(C)C)c(OCCC(=O)O)cc2S(=O)(=O)C1 (single isomer, unassigned) [Example 17] | not met |
| CCCCC1(CC)CN(c2ccccc2)c2cc(Cl)c(OC(C)CC(=O)O)cc2S(=O)(=O)C1 (single isomer, unassigned) [30, diastereomer 1] | not met |

Next:
Item CCCCC1(CCCC)CN(c2ccccc2)c2cc(SC)c(OCC(O)C(=O)O)cc2S(=O)(=O)C1 (single isomer, unassigned) [Example 10] : Papp A→B at 120 min, 10 μM beneath 4 ×10⁻⁶ cm/s, strictly?
met
